Reference for the values: paper PMC9517990

Molecular target: neuraminidase of A/South Korea/90207/2020 WT virus (NA-H275, PA-I38) (Influenza A virus (A(H1N1)pdm09))
Assay type: biochemical

[
  {
    "compound": "CCC(CC)[C@H](NC(C)=O)[C@@H]1[C@H](O)[C@@H](C(=O)O)C[C@H]1N=C(N)N [Peramivir, peramivir]",
    "IC50 [nM]": 0.16
  }
]
